- Tested on: HOP-92
- Test: NCI tumour cell line growth inhibition, 48 h
Calls of active or inactive are those of the source. Cut-off read from the data, not from the text of the source: active = GI50 up to about 1.1 µM and inactive = higher.
Outcome codes: true = active, false = inactive

| Compound | Assigned category |
| --- | --- |
| CCn1c2c(c3ccccc31)[C@@H](c1ccc(Cl)cc1)CC1C(=O)N(c3ccccc3)C(=O)C21 (some centres not stated) | false |
| O=c1cc(N2CCOCC2)oc2c(-c3ccccc3)cccc12 | false |
| CC1=NOC(=O)/C1=C/c1ccccc1O | false |
| CC[N+](C)(CC)CCNC(=O)C(O)(c1ccccc1)c1ccccc1 | false |
| CCCCP1(=O)C=CC(Cl)=C(C)C1 (configuration not stated) | false |
| CC(/C=N/N=C1NCCCN1)=N\N=C1NCCCN1 | false |
| O=C1C2=C(C3=NCCc4c[nH]c1c43)c1c(Br)cc(Br)cc1CCN2 | false |
| CC(C)=C1CCC(CN2CCOCC2)C1=O (configuration not stated) | false |
| CC(C)=CCCC(C)C1=C(O)C(=O)C(C)=CC1=O (configuration not stated) | false |
| CC(C)c1ccc(/C(C(=O)O)=C(\O)C(=O)O)cc1 | false |
| O=c1[nH]c2ccc(Cl)cc2c2oc(-c3ccccc3)nc12 | false |
| CC(C)=C1C(=O)C[C@]2(C)C/C=C(\C)CC/C=C(\C)CC[C@@H]12 | false |
| C=CCNC(=S)N1CC(C)C(=O)Nc2cc(Cl)ccc21 (configuration not stated) | false |
| O=C(O)CNS(=O)(=O)c1ccc(NC(=O)Nc2ccccc2)cc1 | false |
| O=[N+]([O-])c1cc(-c2nc(-c3ccccc3)c(-c3ccccc3)[nH]2)c(O)c([N+](=O)[O-])c1 | false |
| Cc1nc(-c2nc(C)c(C(=O)NN(C)C)s2)sc1C(=O)NN(C)C | false |
| CCCCC(C(=O)CCC(=O)Nc1ccc(Cl)c(Cl)c1)C(=O)C(C)C (configuration not stated) | false |
| COc1cc2c(c(OC)c1OC)-c1ccc(SC)c(=O)cc1C(CC(=O)Oc1cccc(C#N)c1)C2 (configuration not stated) | false |
| COC(=O)c1c(O)ccc2c1c1c(n2Cc2cccc(C)c2)C(=O)c2ccccc2C1 | false |
| C=C1c2ccccc2C(=O)c2c1c1c(C(=O)OC)c(O)ccc1n2Cc1ccccc1 | true |
| CC(=O)NC(CCCCN)C(=O)NCc1ccccc1 (configuration not stated) | false |
| COC(=O)C(Cc1ccc(Oc2cc(CC(NC(=O)c3ccccc3)C(=O)OC)ccc2OC)cc1)NC(=O)c1ccccc1 (configuration not stated) | false |
